# Tested on: L1210 leukemia ip in BDF1 mice, survival T/C
# assay: NCI In Vivo Anticancer Drug Screen. Data for tumor model L1210 Leukemia (intraperitoneal) in B6D2F1 (BDF1) mice
# condition_context: endpoint: mean survival time; dose: 400.0 mg/kg/injection; schedule: Q01DX009 (ip); vehicle: saline with Tween-80; higher = longer survival
Toxic doses and inconclusive results are not listed. Peptide text beside a SMILES is read from it. * marks the point of attachment. ONp = O=[N+]([O-])c1ccc(O*)cc1; Cbz = O=C(OCc1ccccc1)*
Assign T/C to each entry below.

Task: Under L1210 leukemia ip in BDF1 mice, survival T/C: T/C value of O=C1NC(=O)C(Cc2ccc(Cl)cc2)C(=O)N1 ?
Result: 98 % of control

Task: Under L1210 leukemia ip in BDF1 mice, survival T/C: T/C value of COc1cccc(CNc2cccc(Cl)c2Cl)c1OC ?
Result: 109 % of control

Task: Under L1210 leukemia ip in BDF1 mice, survival T/C: T/C value of O=C(NC1CCCC2C(NC(=O)c3ccccc3)CCCC12)c1ccccc1 (stereo not drawn) ?
Result: 95 % of control

Task: Under L1210 leukemia ip in BDF1 mice, survival T/C: T/C value of CCOc1ccccc1NC(=O)C(Br)C(Br)C(=O)O (stereo not drawn) ?
Result: 96 % of control

Task: Under L1210 leukemia ip in BDF1 mice, survival T/C: T/C value of Cc1ccc(S(=O)(=O)NN=C2CCC(C(C)(C)C)CC2)cc1 (stereo not drawn) ?
Result: 91 % of control

Task: Under L1210 leukemia ip in BDF1 mice, survival T/C: T/C value of OCC(O)C(O)C(O)C(O)C(O)CO (stereo not drawn) ?
Result: 90 % of control

Task: Under L1210 leukemia ip in BDF1 mice, survival T/C: T/C value of CCOC(=O)C(CSCSC)NC(=O)/C=C/c1cccnc1 (stereo not drawn) ?
Result: 90 % of control

Task: Under L1210 leukemia ip in BDF1 mice, survival T/C: T/C value of Cc1ccc(S(=O)(=O)N(C)c2cc(Cl)c(C(N)=O)c(Cl)c2)cc1 ?
Result: 92 % of control

Task: Under L1210 leukemia ip in BDF1 mice, survival T/C: T/C value of COCCNP(=S)(OC)OC ?
Result: 101 % of control

Task: Under L1210 leukemia ip in BDF1 mice, survival T/C: T/C value of O=[N+]([O-])c1cccnc1Oc1cc(Cl)c(Cl)cc1Cl ?
Result: 100 % of control

Task: Under L1210 leukemia ip in BDF1 mice, survival T/C: T/C value of CC(C)(C)C(=O)CC(=O)C(C)(C)C ?
Result: 91 % of control

Task: Under L1210 leukemia ip in BDF1 mice, survival T/C: T/C value of CCOc1cc(-c2nc(-c3ccc(N=Cc4ccc(N(CCCOS(C)(=O)=O)CCCOS(C)(=O)=O)cc4)cc3)cs2)ccc1OCc1ccccc1 ?
Result: 92 % of control

Task: Under L1210 leukemia ip in BDF1 mice, survival T/C: T/C value of COc1cc(CC(=O)O)ccc1OCc1ccccc1 ?
Result: 116 % of control

Task: Under L1210 leukemia ip in BDF1 mice, survival T/C: T/C value of CCCOc1ccc(/C=N\N=C\c2ccc(OCCC)cc2)cc1 ?
Result: 91 % of control

Task: Under L1210 leukemia ip in BDF1 mice, survival T/C: T/C value of O=C(Nc1ccc(Cl)c(Cl)c1)O/N=C/c1ccccn1 ?
Result: 91 % of control

Task: Under L1210 leukemia ip in BDF1 mice, survival T/C: T/C value of N#CC(CC(=O)OCc1ccccc1)NC(=O)OCc1ccccc1 (stereo not drawn) ?
Result: 97 % of control

Task: Under L1210 leukemia ip in BDF1 mice, survival T/C: T/C value of O=C1NCCS1 ?
Result: 96 % of control

Task: Under L1210 leukemia ip in BDF1 mice, survival T/C: T/C value of O=C(CNC(=O)OCc1ccccc1)NCC(=O)Oc1ccc([N+](=O)[O-])cc1 (Cbz-Gly-Gly-ONp) ?
Result: 100 % of control
